Give measured pIC50 for each item. Keep answers brief.
pIC50 (log units): -log10 of the concentration in mol/L.

Name the value of pIC50 reported for CCOC(=O)C1Cc2nc(-c3ccc4ccccc4c3)n(-c3ccnc(N[C@H]4CCCN(C(=O)C5CC5)C4)n3)c2C1 (stereo not given in full) when tested on UniProt P49841.
Sequence (P49841 whole entry): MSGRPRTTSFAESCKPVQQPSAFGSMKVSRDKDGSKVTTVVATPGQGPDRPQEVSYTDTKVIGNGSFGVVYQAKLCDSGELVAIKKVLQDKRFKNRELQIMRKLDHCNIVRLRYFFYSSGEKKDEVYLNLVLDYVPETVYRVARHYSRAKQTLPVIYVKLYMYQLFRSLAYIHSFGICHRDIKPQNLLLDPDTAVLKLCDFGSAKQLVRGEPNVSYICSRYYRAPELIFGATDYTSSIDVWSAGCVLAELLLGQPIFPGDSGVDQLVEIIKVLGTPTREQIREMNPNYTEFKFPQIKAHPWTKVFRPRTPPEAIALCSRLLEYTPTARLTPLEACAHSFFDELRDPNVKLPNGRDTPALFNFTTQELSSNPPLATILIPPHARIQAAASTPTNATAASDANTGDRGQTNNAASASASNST
5.65

Determine reported pIC50 for NC(=O)C1Cc2nc(-c3ccc(Cl)c(Cl)c3)n(-c3ccnc(N[C@H]4CCCN(C(=O)C5CC5)C4)n3)c2C1 (stereo not given in full) ; test system: UniProt P49841.
5.41

Send back UniProt P49841 pIC50 of CCOC(=O)C1Cc2nc(-c3ccc(Cl)c(Cl)c3)n(-c3ccnc(N[C@H]4CCCN(C(=O)C5CC5)C4)n3)c2C1 (stereo not given in full) only.
5.31

State pIC50 (UniProt P49841) of NC(=O)C1Cc2nc(-c3ccc(Cl)c(Cl)c3)n(-c3ccnc(N[C@@H]4CCCN(C(=O)C5CC5)C4)n3)c2C1 (stereo not given in full) .
6.33
